Taken from patent US20240279215A1.

Biological target: human NAMPT (Homo sapiens (Human), UniProt P43490)
Sequence (P43490 whole entry): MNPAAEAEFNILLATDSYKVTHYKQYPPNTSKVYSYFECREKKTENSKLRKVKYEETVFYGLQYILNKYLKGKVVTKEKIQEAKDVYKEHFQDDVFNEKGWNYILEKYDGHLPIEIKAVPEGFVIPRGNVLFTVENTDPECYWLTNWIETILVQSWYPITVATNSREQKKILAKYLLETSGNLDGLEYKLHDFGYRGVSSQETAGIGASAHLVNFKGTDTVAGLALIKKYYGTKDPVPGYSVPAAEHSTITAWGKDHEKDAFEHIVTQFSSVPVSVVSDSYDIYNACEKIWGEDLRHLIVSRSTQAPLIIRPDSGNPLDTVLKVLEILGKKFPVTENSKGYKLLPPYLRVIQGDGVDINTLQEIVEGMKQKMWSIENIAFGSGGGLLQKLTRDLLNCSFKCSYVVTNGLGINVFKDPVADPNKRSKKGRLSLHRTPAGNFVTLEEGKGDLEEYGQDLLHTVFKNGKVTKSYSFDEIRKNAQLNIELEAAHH
Experiment: NMN fluorescence biochemical assay (human recombinant NAMPT enzyme assay)
Binary call on AC1.4 Human with cut-off 0.4 µM: strictly below means condition met, and equality or higher means condition not met.

Hello, is AC1.4 Human of the following compound strictly smaller than 0.4 µM? Cc1ncccc1C(=O)NCc1ccc(NC(=O)OCc2ccc(Cl)cc2)cc1
condition not met

Hello, is AC1.4 Human of the following compound strictly smaller than 0.4 µM? O=C(Nc1ccc(CC(=O)N2CCN(C3COC3)CC2)cc1)OCc1ccc(Cl)cc1
condition not met

Hello, is AC1.4 Human of the following compound strictly smaller than 0.4 µM? COc1ncc(C(=O)NCc2ccc(NC(=O)OCc3ccc(Cl)cc3)cc2)cn1
condition not met

Hello, is AC1.4 Human of the following compound strictly smaller than 0.4 µM? CC(=O)N1CCC2(CC(c3ccc(NC(=O)OCc4cnco4)cc3F)C2)C1 (single isomer, unassigned) [Compound 373]
condition met

Hello, is AC1.4 Human of the following compound strictly smaller than 0.4 µM? COc1ccc(COC(=O)Nc2ccc(CN3CCN(C4COC4)CC3)cc2)cc1
condition not met

Hello, is AC1.4 Human of the following compound strictly smaller than 0.4 µM? O=C(Nc1ccc(CC2CCN(C3COC3)CC2)c(F)c1)OCc1cnco1
condition met

Hello, is AC1.4 Human of the following compound strictly smaller than 0.4 µM? CN(Cc1ccc(NC(=O)OCc2ccc(Cl)cc2)cc1)C(=O)c1n[nH]cc1F
condition not met

Hello, is AC1.4 Human of the following compound strictly smaller than 0.4 µM? Cc1cc(C(=O)NCc2ccc(NC(=O)OCc3ccc(Cl)cc3)cc2)ccn1
condition not met

Hello, is AC1.4 Human of the following compound strictly smaller than 0.4 µM? CN1CCN(Cc2ccc(NC(=O)OCc3ccc(Cl)cc3)cc2)C(=O)C1
condition met

Hello, is AC1.4 Human of the following compound strictly smaller than 0.4 µM? CS(=O)(=O)N1CC2(CC(c3ccc(NC(=O)OCc4cnco4)cc3F)C2)C1
condition met

Hello, is AC1.4 Human of the following compound strictly smaller than 0.4 µM? O=C(Nc1ccc(CC2CC3CCC(C2)N3S(=O)(=O)C2CC2)cc1)OCc1cnco1 (centres unmarked)
condition met

---

Would you kindly list AC1.4 Human for each of these compounds?
Molecular target: human NAMPT (Homo sapiens (Human))
Experiment: NMN fluorescence biochemical assay (human recombinant NAMPT enzyme assay)
Provide the reading as a plain figure in µM.

Look up AC1.4 Human: Cc1nn(C)c(C(=O)N[C@@H](C)c2ccc(NC(=O)OCc3ccc(Cl)cc3)cc2)c1C
0.22

Look up AC1.4 Human: CC(=O)N1CCC(OCc2ccc(NC(=O)OCc3ccc(Cl)cc3)cc2)CC1
0.75

Look up AC1.4 Human: COC(=O)N1CCC(c2ccc(NC(=O)OCc3cnco3)cc2F)CC1
0.18

Look up AC1.4 Human: COc1cc(C(=O)N[C@@H](C)c2ccc(NC(=O)OCc3ccc(Cl)cc3)cc2)cnc1C
0.91

Look up AC1.4 Human: CC(=O)N1CCC(c2ccc(NC(=O)OCc3cnco3)cc2)CC1
0.14

Look up AC1.4 Human: CC(O)(c1ccncc1)c1ccc(NC(=O)OCc2cncs2)cc1 (stereo not shown)
8.65

Look up AC1.4 Human: O=C(Nc1ccc(CC2CCN(CC(F)(F)F)CC2)cc1)OCc1cncs1
1.07

Look up AC1.4 Human: O=C(Nc1ccc(CC2CCN(C3COC3)CC2)cc1)OCc1cnco1
0.66

Look up AC1.4 Human: O=C(Nc1ccc(CC2CCNCC2)cc1)OCc1cnco1
6.60

Look up AC1.4 Human: C[C@H](NC(=O)c1ccc(F)cc1)c1ccc(NC(=O)OCc2cnco2)cc1
0.43
